All figures here come from patent US20120301469A1.

- measured_target: protein F of hRSV strain B-1 (on RSV B-1-infected Hep2 cells and on virus) (human respiratory syncytial virus, …, UniProt P13843 26-574)
- measurement_notes: cell ELISA on RSV B-1-infected Hep2 cells, periplasmic extract 1:200
// values below are reported Binding Hep2-B-1 (% control) 1:200 PE
Just the number in % control, nothing appended.

{"binder": "Nanobody 8B10 (VHH, also called PMP8B10; PRSV8B10) VHH: EVQLVESGGGLVQAGASLRLSCAASGLAFSRYAMGWFRQAPGKERESVAAISSSGDNIYYADSVKGQFTMSRDNAKSSVYLQMINLKPEDTAVYYCAATSPLFVASDYFEASRYGYWGQGTQVTVSS", "readout_type": "Binding Hep2-B-1 (% control) 1:200 PE", "experimental_result": 84}
{"binder": "Nanobody 1G3 (VHH, also called PMP1G3; PRSV1G3) VHH: EVQLVESGGGLVQAGGSLRLSCEASGRTYSRYGMGWFRQAPGKEREFVAAVSRLSGPRTVYADSVKGRFTISRDNAENTVYLQMNSLKPEDTAVYTCAAELTNRNSGAYYYAWAYDYWGQGTQVTVSS", "readout_type": "Binding Hep2-B-1 (% control) 1:200 PE", "experimental_result": 45}
{"binder": "Nanobody 13C1 (VHH, also called PMP13C1; PRSV13C1) VHH: EVQLVESGGGLVQPGGSLRLSCEASGFTWDYYVIGWFRQAPGKEREGLSCISSDGSTTYADSVKGRFTISRDNAKNTVYLQMNSLEPEDTAVYYCATDPALGCYSGSYYPRYDYWGQGTQVTVSS", "readout_type": "Binding Hep2-B-1 (% control) 1:200 PE", "experimental_result": 86}
{"binder": "Nanobody 1B2 (VHH, c-myc/His6-tagged; also called PMP1B2; PRSV1B2) VHH: EVQLVESGGGLVQAGGSLRLSCAASGPTFSADTMGWFRQAPGKEREFVATIPWSGGIAYYSDSVKGRFTMSRDNAKNTVDLQMNSLKPEDTALYYCAGSSRIYIYSDSLSERSYDYWGQGTQVTVSS", "readout_type": "Binding Hep2-B-1 (% control) 1:200 PE", "experimental_result": 85}
{"binder": "Nanobody 19E2 (VHH, also called PMP19E2; PRSV19E2) VHH: EVQLVESGGGLVQPGGSLRLSCAASGLTLDYYALGWFRQAPGKEREGVSCISSSDHTTTYTDSVKGRFTISWDNAKNTLYLQMNSLKPEDTAVYYCAADPALGCYSGSYYPRYDFWGQGTQVTVSS", "readout_type": "Binding Hep2-B-1 (% control) 1:200 PE", "experimental_result": 58}
{"binder": "Nanobody 13A1 (VHH, also called PMP13A1; PRSV13A1) VHH: EVQLVESGGGLVQPGGSLRLSCAASGLTLDYYALGWFRQAPGKEREGVSCISSADHSTTYADSVKGRFTISWDNAKNTVYLQMNSLKPEDTAVYYCAADPALGCYSGNYYPRYDYWGQGTQVTVSS", "readout_type": "Binding Hep2-B-1 (% control) 1:200 PE", "experimental_result": 65}

Need Binding Hep2-B-1 (% control) 1:200 PE of Nanobody 8A1 (VHH, also called PMP8A1; PRSV8A1) VHH: EVQLVESGGGLVQPGGSLRVSCAASGFTFNDYIMGWFRQAPGKERMFIAAISGTGTIKYYGDLVRGRFTISRDNAKNTVYLRIDSLNPEDTAVYYCAARQDYGLGYRESHEYDYWGQGTQVTVSS , thanks.
92

Need Binding Hep2-B-1 (% control) 1:200 PE of Nanobody 19C4 (VHH, also called PMP19C4; PRSV19C4) VHH: EVQLVESGGGLVQAGGSLRLSCAASGRSFSNYVLGWFRQAPGKEREFVAAISFRGDSAIGAPSVEGRFTISRDNAKNTGYLQMNSLVPDDTAVYYCGAGTPLNPGAYIYDWSYDYWGRGTQVTVSS , thanks.
50
